# test-target: purified biotin-tagged human CD36 (human, UniProt P16671 30-439, limits assumed, biotin tag, site not stated)
# Sequence (P16671 30-439 limits assumed): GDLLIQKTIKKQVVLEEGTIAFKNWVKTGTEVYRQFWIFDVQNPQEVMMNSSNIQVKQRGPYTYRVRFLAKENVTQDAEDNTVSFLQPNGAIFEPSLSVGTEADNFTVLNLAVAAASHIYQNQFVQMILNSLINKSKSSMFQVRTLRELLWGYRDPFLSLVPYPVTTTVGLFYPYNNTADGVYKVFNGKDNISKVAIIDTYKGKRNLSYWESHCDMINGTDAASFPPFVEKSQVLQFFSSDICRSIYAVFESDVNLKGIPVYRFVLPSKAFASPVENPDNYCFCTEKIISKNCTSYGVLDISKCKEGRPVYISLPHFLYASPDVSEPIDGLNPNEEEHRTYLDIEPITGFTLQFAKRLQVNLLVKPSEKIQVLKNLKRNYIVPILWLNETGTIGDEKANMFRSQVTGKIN
# protocol-summary: AlphaScreen competition; competitor 11G04 on acceptor beads
experimental-endpoint: pEC50
The scale used: pEC50 is minus the common logarithm of the concentration in molar units.

Previously resolved entries follow.
# binder, pEC50
data = [
    ("33G04 (antibody, human IgG1, V domains shown, Chimeric: chicken variable regions on human IgG1 LALA (L234A/L235A); also called 033G04) VH: AVTLDESGGGLQTPGGALSLVCKASGFDFSSYAMGWVRQAPGKGLEWVAGKAKDGGGTAYGSAVKGRATISRDNGQSTVRLQLSNLRAEDTGVYYCAKSAYGDWFYGSSGPYADSIDAWGHGTEVIVSS VL: ALTQPSSVSASPGETVKITCSGSSDSWYGWYQQKSPGSALVTVIYDSTNRPSSIPSRFSGSTSGSTGTLTITGVRADDEAVYFCGSFDSSTDSTAFGAGTTLTVL", 8.43),
    ("37G04 (antibody, human IgG1, V domains shown, Chimeric: chicken variable regions on human IgG1 LALA (L234A/L235A); also called 037G04) VH: AVTLDESGGGLQTPGGALSLVCKASGFTFSDYDMLWVRQAPGKGLEFVAGINAASTYTDYGAAVKGRATISRDNGQSTVRLQVNNLRAEDTGTYYCAKSSYGGGWSDVGSIDAWGHGTEVIVSS VL: ALTQPSSVSANPGETVKITCSGDRSYYGYGWYQQKAPGSAPVTVIYWDDKRPSDIPSRFSGSTSGSTATLTITGVQAEDEAVYFCGNMDSSYVGMFGAGTTLTVL", 8.48),
    ("36G04 (antibody, human IgG1, V domains shown, Chimeric: chicken variable regions on human IgG1 LALA (L234A/L235A); also called 036G04) VH: AVTLDESGGGLQTPGGALSLVCKASGFIFSSYGMGWVRQAPGKGLEYIAAISNDGSKADYGAAVKGRATISRDNGQSTVRLQLNNLRAEDTATYYCAKSADTGYCSWSACIADSIDAWGHGTEVIVSS VL: ALTQPSSVSAIPGETVKITCSGGGSDYGWYQQKSPGSAPVTVIYWSDNRPSNIPSRFSGSESGSTATLTITGVRAEDEAVYFCGGYDSSGSGMFGAGTTLTVL", 8.98),
    ("34G04 (antibody, human IgG1, V domains shown, Chimeric: chicken variable regions on human IgG1 LALA (L234A/L235A); also called 034G04) VH: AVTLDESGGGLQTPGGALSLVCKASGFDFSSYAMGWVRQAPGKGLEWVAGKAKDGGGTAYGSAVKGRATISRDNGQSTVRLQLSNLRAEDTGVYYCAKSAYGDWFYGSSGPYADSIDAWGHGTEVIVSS VL: ALTQPSSVSANPGETVKITCSGGDNYAGSYYYGWYQQKSPGSAPVTVIYDDTNRPADIPSRFSGSTSGSTNTLTITGVRAEDEAVYFCGGWDSINDRNIFGAGTTLTVL", 8.32),
]

Exercise: Please supply the value of reported pEC50 for the item 35G04 (antibody, human IgG1, V domains shown, Chimeric: chicken variable regions on human IgG1 LALA (L234A/L235A); also called 035G04) VH: AVTLDESGGGLQTPGGALSLVCKASGFTFSNYGMGWMRQAPGKGLEFVAKIYKDGGYTGYGAAVDGRATISRDDGQSTVRLQLNDLRAEDTATYFCAKAADSGYLYITDSIDAWGHGTEVIVSS VL: ALTQPSSVSANPGETVKITCSGGSGSYGWFQQKSPGNAPVTVIYHNDQRPSDIPSRFSGSKSGSTATLTITEVQADDEAVYVCGGYDNDNDAGIFGAGTTLTVL
Solution: 8.87
